Answer each item with its documented pH (24 hours).
Assay: Solubility test of compounds of formula (I)-(IV) in 4 vehicles (water, SGF, FaSSIF, FeSSIF), HPLC
Type: physicochemical
Details: pH of sample in H2O (vehicle pH 8.23), 24 hours
Respond using a number only.

q: Query: pH (24 hours); subject: C[C@@H](Oc1ccc2[nH]nc(/C=C(\F)c3ccc(CNC4CCOCC4)nc3)c2c1)c1c(Cl)cncc1Cl.O=C(O)C[C@H](O)C(=O)O
a: 6.46

q: Query: pH (24 hours); subject: C[C@@H](Oc1ccc2[nH]nc(/C=C(\F)c3ccc(CNC4CCOCC4)nc3)c2c1)c1c(Cl)cncc1Cl.O=C(O)CC(O)(CC(=O)O)C(=O)O
a: 5.47

q: Query: pH (24 hours); subject: C[C@@H](Oc1ccc2[nH]nc(/C=C(\F)c3ccc(CNC4CCOCC4)nc3)c2c1)c1c(Cl)cncc1Cl [compound of formula (II)]
a: 2.68

q: Query: pH (24 hours); subject: C[C@@H](Oc1ccc2[nH]nc(/C=C(\F)c3ccc(CNC4CCOCC4)nc3)c2c1)c1c(Cl)cncc1Cl [compound of formula (I)]
a: 7.97

====

Answer each item with its documented solubility at 4 h.
Test: Solubility test of compounds of formula (I)-(IV) in 4 vehicles (water, SGF, FaSSIF, FeSSIF), HPLC
Type: physicochemical
Conditions: FeSSIF, pH 5, fessif, thermodynamic from solid, vehicle FeSSIF, 4 hours stirring; read-out: Solubility (μg/mL)_4 hours
The answer is to be given in µg/mL; state only the numeric part.

q: Query: solubility at 4 h; subject: C[C@@H](Oc1ccc2[nH]nc(/C=C(\F)c3ccc(CNC4CCOCC4)nc3)c2c1)c1c(Cl)cncc1Cl [compound of formula (I)]
a: 1950

q: Query: solubility at 4 h; subject: C[C@@H](Oc1ccc2[nH]nc(/C=C(\F)c3ccc(CNC4CCOCC4)nc3)c2c1)c1c(Cl)cncc1Cl.O=C(O)C[C@H](O)C(=O)O [compound of formula (IV)]
a: 2410

q: Query: solubility at 4 h; subject: C[C@@H](Oc1ccc2[nH]nc(/C=C(\F)c3ccc(CNC4CCOCC4)nc3)c2c1)c1c(Cl)cncc1Cl.O=C(O)CC(O)(CC(=O)O)C(=O)O [compound of formula (III)]
a: 2370

====

Assay: Solubility test of compounds of formula (I)-(IV) in 4 vehicles (water, SGF, FaSSIF, FeSSIF), HPLC
Format: physicochemical
Settings: pH of sample in FaSSIF (vehicle pH 6.62), 24 hours
readout-kind: pH (24 hours)

q: Query: pH (24 hours); subject: C[C@@H](Oc1ccc2[nH]nc(/C=C(\F)c3ccc(CNC4CCOCC4)nc3)c2c1)c1c(Cl)cncc1Cl [compound of formula (II)]
a: 6.22

q: Query: pH (24 hours); subject: C[C@@H](Oc1ccc2[nH]nc(/C=C(\F)c3ccc(CNC4CCOCC4)nc3)c2c1)c1c(Cl)cncc1Cl.O=C(O)C[C@H](O)C(=O)O
a: 6.27

q: Query: pH (24 hours); subject: C[C@@H](Oc1ccc2[nH]nc(/C=C(\F)c3ccc(CNC4CCOCC4)nc3)c2c1)c1c(Cl)cncc1Cl.O=C(O)CC(O)(CC(=O)O)C(=O)O
a: 6.33

q: Query: pH (24 hours); subject: C[C@@H](Oc1ccc2[nH]nc(/C=C(\F)c3ccc(CNC4CCOCC4)nc3)c2c1)c1c(Cl)cncc1Cl [compound of formula (I)]
a: 6.57
